- procedure.text: qHTS assay to identify small molecule agonists of the peroxisome proliferator-activated receptor delta (PPARd) signaling pathway - cell viability counter screen (AID 743211); note: % is set by controls: 0 for no effect and ±100 for the full control effect; nearly all actives have a fitted effect of over 55% in size
- condition.set: PPARd-bla HEK293H viability, CellTiter-Glo luminescence, 17 h; series mostly up to 62.6 µM
Results filed as inconclusive are left out. Activity calls are given as the source filed them. Calls come from the whole dose curve; as a rule, active = well fitted cell-killing curve with a large enough effect in the repeat runs; inconclusive = weak or mixed curves; inactive = no such curve, though single readings can be large or run the other way.
readout.kind: activity change, negative = cytotoxicity

// known answers, use as guide
* OCCc1ccccn1 | inactive
* CC(C)CC(C)(N)C#N (centres undefined) | inactive
* C[C@H]1[C@H](NC(=O)/C(=N/OC(C)(C)C(=O)O)c2csc(N)n2)C(=O)N1S(=O)(=O)O (stereo in doubt) | inactive
* CN(C)C(=O)Oc1ccc[n+](C)c1 | inactive
* O=C(O)c1cn(C2CC2)c2cc(N3CCNCC3)c(F)cc2c1=O | inactive
* Cc1ccccc1N=C(N)N=C(N)N | inactive
* CCC(=O)OCc1ccccc1 | inactive
* CC1OC1C1CCC2(C)OC2C1 (centres undefined) | inactive

Reported activity change, negative = cytotoxicity, compound "C[N+](C)(CCOc1ccccc1)Cc1cccs1" : ____
inactive

What would you report for "O=C(O)Cc1csc(-c2ccc(Cl)cc2)n1" ?
inactive

What would you report for C=C(C)C(=O)OCC(O)CO (centres undefined) ?
inactive

What would you report for COc1ccccc1OCC1CNC(=O)O1 (centres undefined) ?
inactive

What would you report for O=C1NC(=O)C2CC=CCC12 (centres undefined) ?
inactive

What would you report for "Cc1ccc(C(=O)c2ccc(CC(=O)O)n2C)cc1" ?
inactive

---

- procedure.text: qHTS assay to test for compound auto fluorescence at 460 nm (blue) in HEK293 cell free culture (AID 720681); note: % is set by controls: 0 for no effect and ±100 for the full control effect
- condition.set: cell-free medium, autofluorescence 405/460 nm (blue); series mostly up to 91.3 µM
Activity calls are given as the source filed them. Calls follow the shape of the dose curve; as a rule, active = well fitted curve in the direction sought with a large enough effect in the repeat runs; inconclusive = weak or mixed curves; inactive = flat fitted curve, though single readings scatter.
readout.kind: fluorescence, % of fluorescent control

- COc1cc(C(=O)NCc2ccc(OCCN(C)C)cc2)cc(OC)c1OC: -0.119% [at 18.6 µM] (inactive)
- CO[Si](C)(OC)c1ccccc1: inactive
- COc1ccc2cc1Oc1cc3c(cc1OC)CC[N+](C)(C)[C@H]3Cc1ccc(cc1)Oc1c(OC)c(OC)cc3c1[C@@H](C2)[N+](C)(C)CC3: inactive
- C[N+]1(C)[C@@H]2CC(OC(=O)[C@H](CO)c3ccccc3)C[C@H]1[C@@H]1O[C@@H]12 (stereo partly drawn): inactive
- CC(C(=O)O)c1cccc(Oc2ccccc2)c1 (stereo not drawn): -0.022% [at 18.6 µM] (inactive)
- O=C1c2ccccc2C(=O)c2cc(O)ccc21: inactive
- Cc1ccc(C(=O)c2ccccc2)cc1: inactive
- CC(=O)O[C@@]12CO[C@@H]1C[C@H](O)[C@@]1(C)C(=O)[C@H](O)C3=C(C)[C@@H](OC(=O)[C@H](O)[C@@H](NC(=O)OC(C)(C)C)c4ccccc4)C[C@@](O)([C@@H](OC(=O)c4ccccc4)[C@H]21)C3(C)C: inactive

Reported fluorescence, % of fluorescent control, compound C=COCC1CCC(COC=C)CC1 (stereo not drawn) : ____
inactive

What would you report for "O=C1CCCCCCCCCCCCCCO1" ?
inactive

What would you report for "FB(F)F" ?
inactive

What would you report for "CCOc1ccccc1OCC" ?
inactive

What would you report for "CC1=NS(=O)(=O)c2cc(Cl)ccc2N1" ?
inactive

---

- system.name: Thyrotropin-releasing hormone receptor (Homo sapiens) (UniProt P34981)
- Sequence (P34981 whole entry, looked up): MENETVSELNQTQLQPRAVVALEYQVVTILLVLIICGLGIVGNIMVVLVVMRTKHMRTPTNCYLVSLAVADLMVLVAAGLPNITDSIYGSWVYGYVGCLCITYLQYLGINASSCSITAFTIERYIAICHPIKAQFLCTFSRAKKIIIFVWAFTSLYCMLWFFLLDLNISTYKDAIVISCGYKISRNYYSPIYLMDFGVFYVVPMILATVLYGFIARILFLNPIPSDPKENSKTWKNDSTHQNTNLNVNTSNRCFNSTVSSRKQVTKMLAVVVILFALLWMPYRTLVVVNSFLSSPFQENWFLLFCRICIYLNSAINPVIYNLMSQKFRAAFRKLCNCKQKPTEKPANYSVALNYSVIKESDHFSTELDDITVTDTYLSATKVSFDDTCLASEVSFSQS
- procedure.text: qHTS assay to identify small molecule agonists of the thyrotropin-releasing hormone receptor (TRHR) signaling pathway (AID 1346891);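 note: HEK293 cells expressing TRHR with calcium dye readout; % is set by controls: 0 for no effect and ±100 for the full control effect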
- condition.set: TRHR-HEK293 calcium fluorescence, agonist mode; series mostly up to 57.6 µM
The source made the active and inactive calls. Calls come from the whole dose curve.
readout.kind: activation

• COc1ccc2cc1Oc1cc3c(cc1OC)CC[N+](C)(C)[C@H]3Cc1ccc(cc1)Oc1c(OC)c(OC)cc3c1[C@@H](C2)[N+](C)(C)CC3 = inactive
• CC(=O)c1cnccn1 = inactive
• O=Cc1cccc(Br)c1 = inactive

---

- procedure.text: qHTS assay for identifying genotoxic compounds that show differential cytotoxicity against isogenic chicken DT40 cell lines with known DNA damage response pathways - wild type cell line (AID 743012); note: % is set by controls: 0 for no effect and ±100 for the full control effect; nearly all actives have a fitted effect of over 60% in size
- condition.set: DT40 wild type chicken cells viability, CellTiter-Glo, 40 h; series mostly up to 68.4 µM
Inconclusive results are not listed. The source made the active and inactive calls. Calls come from the whole dose curve; as a rule, active = well fitted cell-killing curve with a large enough effect in the repeat runs; inconclusive = weak or mixed curves, or effect the other way; inactive = no such curve, though single readings can be large or run the other way.
// one of 1 for active, -1 for inactive, no free text

- C[N+]1(C)[C@@H]2CC(OC(=O)[C@H](CO)c3ccccc3)C[C@H]1[C@@H]1O[C@@H]12 (some centres not stated): -1

What call does the record list for "CC(C)C[C@@H](N)C(=O)O" ?
-1

---

- procedure.text: qHTS RealTime-Glo MT Cell Viability Assay in HepG2 cells - 32 hour (AID 1224877); note: % is set by controls: 0 for no effect and ±100 for the full control effect; nearly all actives have a fitted effect of over 55% in size
- condition.set: RealTime-Glo luminescence; series mostly up to 76.8 µM
Records with an inconclusive call do not appear. Active and inactive are the calls of the source. Calls follow the shape of the dose curve; as a rule, active = well fitted cell-killing curve with a large enough effect in the repeat runs; inconclusive = weak or mixed curves; inactive = flat fitted curve, though single readings scatter.
readout.kind: activity change, negative = cytotoxic

// known answers, use as guide
* O=C(O)CC(C(=O)O)S(=O)(=O)O (stereo not given) | inactive
* C[C@@H]1C[C@H]2[C@@H]3C[C@H](F)C4=CC(=O)C(Cl)=C[C@]4(C)[C@@]3(F)[C@@H](O)C[C@]2(C)[C@@]1(O)C(=O)CO | inactive
* C[C@H]1C[C@H]2[C@@H]3CCC4=CC(=O)C=C[C@]4(C)[C@H]3C(=O)C[C@]2(C)[C@@]1(O)C(=O)CO | inactive
* CCCCOC(=O)CCC(C)=O | inactive
* CCOC(=O)c1ccccc1 | inactive
* CO[Si](C)(OC)c1ccccc1 | inactive
* CCOC(=O)c1cnc2c(cnn2CC)c1NN=C(C)C | inactive
* NC(CCC(=O)O)C(=O)O (stereo not given) | inactive

Reported activity change, negative = cytotoxic, compound CO[C@@]1(NC(=O)C(C(=O)O)c2ccc(O)cc2)C(=O)N2C(C(=O)O)=C(CSc3nnnn3C)CO[C@@H]21 (stereo not given in full) : ____
inactive

What would you report for "Cc1ncc(COP(=O)(O)O)c(C=O)c1O" ?
inactive

---

- procedure.text: qHTS assay to identify small molecule that activate the aryl hydrocarbon receptor (AhR) signaling pathway - cell viability counter screen (AID 743086);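 note: HepG2 liver cells carrying the AhR DRE luciferase reporter; % is set by controls: 0 for no effect and ±100 for the full control effect; nearly all actives have a fitted effect of over 45% in size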
- condition.set: HepG2-AhR-luc viability, CellTiter-Fluor, 24 h; series mostly up to 70.3 µM
Results filed as inconclusive are left out. Calls of active or inactive are those of the source. Calls come from the whole dose curve; as a rule, active = well fitted cell-killing curve with a large enough effect in the repeat runs; inconclusive = weak or mixed curves, or effect the other way; inactive = flat fitted curve, though single readings scatter.
readout.kind: viability change, negative = cytotoxic

// known answers, use as guide
- CCOc1ccc2nc(S(N)(=O)=O)sc2c1: inactive
- O=C(O)CNC(=O)c1ccccc1: inactive
- CC(=O)c1ccccc1[N+](=O)[O-]: inactive
- CCNS(=O)(=O)c1ccc(C)cc1: inactive

Reported viability change, negative = cytotoxic, compound COCCOC[C@H](CC1(C(=O)NC2CCC(C(=O)O)CC2)CCCC1)C(=O)Oc1ccc2c(c1)CCC2 (some centres undefined) : ____
inactive

What would you report for "Nc1ccn([C@@H]2O[C@H](CO)[C@@H](O)C2(F)F)c(=O)n1" ?
inactive

What would you report for COc1ccccc1OCC1CNC(=O)O1 (centres undefined) ?
inactive

What would you report for "O=C(O)Cc1csc(-c2ccc(Cl)cc2)n1" ?
inactive

---

- system.name: Cytochrome P450 2C19 (Homo sapiens)
- procedure.text: Cytochrome P450 Family 2 Subfamily C Member 19 (CYP2C19) small molecule antagonists: luciferase reporter qHTS assay (AID 1671197); note: nearly all actives have a fitted effect of over 65% in size
- condition.set: P450-Glo CYP2C19 enzyme, luciferin luminescence, 1 h; series mostly up to 52.9 µM
Inconclusive results are not listed. Calls of active or inactive are those of the source. Calls follow the shape of the dose curve; as a rule, active = well fitted inhibition curve with a large enough effect in the repeat runs; inconclusive = weak or mixed curves; inactive = no such curve, though single readings can be large or run the other way.
// one of yes (active), no (inactive), no free text

Some solved cases for reference:
• CC(C)(CCC(=O)O)C(=O)O = no
• CN1[C@@H]2CC[C@H]1CC(OC(=O)C(O)c1ccccc1)C2 (stereo partly specified) = no
• CCCCCCC#CC(=O)OC = no
• c1ccc2sc(SN3CCOCC3)nc2c1 = yes
• Cc1ncc([C@@H](CCCCCCc2ccc3c(n2)NCCC3)CC(=O)O)cn1 = no

Shifting focus to the molecule that follows.
What call does the record list for "CC(C)(N)C#N" ?
no

---

- procedure.text: qHTS assay to test for compound auto fluorescence at 535 nm (green) in HEK293 cell free culture (AID 720682); note: % is set by controls: 0 for no effect and ±100 for the full control effect
- condition.set: cell-free medium, green autofluorescence 485/535 nm, active compounds read high; series mostly up to 91.3 µM
Active and inactive are the calls of the source. Calls follow the shape of the dose curve; as a rule, active = well fitted curve in the direction sought with a large enough effect in the repeat runs; inconclusive = weak or mixed curves; inactive = flat fitted curve, though single readings scatter.
readout.kind: activity change

// known answers, use as guide
- CC(=O)Nc1ccc(OCC(O)CNC(C)C)cc1 (stereo unspecified): inactive
- CC1=NN(c2cccc(S(=O)(=O)O)c2)C(=O)C1: inactive
- CCCCc1ccc2c(n1)[C@@H](c1ccc(OC)cc1C[C@H](C)C(=O)O)[C@H](C(=O)O)[C@H]2c1ccc2c(c1)OCO2: inactive
- CC(C)COC(=O)c1ccc(N)cc1: inactive
- NC(CCC(=O)O)C(=O)O (stereo unspecified): inactive

Next item in the queue.
Reported activity change, molecule "CCCCOCCOC(=O)CCCCCCCCC(=O)OCCOCCCC" : ____
inactive
